# Experimental target: GLP-1 Receptor (Homo sapiens)
# Sequence (P43220 24-463, species assumed): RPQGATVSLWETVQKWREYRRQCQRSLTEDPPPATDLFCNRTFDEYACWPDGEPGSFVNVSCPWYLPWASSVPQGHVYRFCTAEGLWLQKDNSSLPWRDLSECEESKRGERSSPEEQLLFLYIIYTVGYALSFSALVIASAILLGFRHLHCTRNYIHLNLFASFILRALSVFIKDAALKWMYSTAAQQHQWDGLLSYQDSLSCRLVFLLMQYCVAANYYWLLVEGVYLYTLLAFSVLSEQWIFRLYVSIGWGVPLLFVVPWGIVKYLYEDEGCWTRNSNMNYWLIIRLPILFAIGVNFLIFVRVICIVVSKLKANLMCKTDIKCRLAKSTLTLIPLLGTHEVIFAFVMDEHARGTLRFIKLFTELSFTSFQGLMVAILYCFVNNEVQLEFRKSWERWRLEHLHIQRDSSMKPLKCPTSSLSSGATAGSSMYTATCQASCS
# Protocol details: GLP-1R agonist cAMP stimulation assay (HEK293/GLP1R/CRE-LUC cells, cAMP dynamic 2 Kit)
# Settings: HEK293/CRE-Luc cell line stably expressing the GLP-1 Receptor, 30 min at 37° C.
# Description: Activation of GLP-1 receptor is known to stimulate cyclic AMP (cAMP) production in cells which indicates primary coupling to the Gαs subunit of the G protein heterotrimeric complex. […] To optimize functional activity directed toward Gαs coupling, a HEK293/CRE-Luc cell line developed by HDB stably expressing the GLP-1 Receptor was used. […]
pEC50: −log10 of the molar value.
Entry flag: Y if pEC50 reaches 10; N if it does not.

Reference set (3 entries):
[[record]]
compound = "CC1(C(=O)Nc2ccc3c(c2)nc(CN2CCC(c4cccc(OCc5ccc(Cl)cc5F)n4)CC2)n3C[C@@H]2CCO2)CCCCO1 (stereo partly shown) [Compound 183a]"
experimental_target = "GLP-1 Receptor (Homo sapiens)"
label_class = "N"

[[record]]
compound = "CC1OC2(C(=O)Nc3ccc4c(c3)nc(CN3CCC(c5cccc(OCc6ccc(Cl)cc6F)n5)CC3)n4C[C@@H]3CCO3)CCC1CC2 (stereo partly shown) [Compound 198a]"
experimental_target = "GLP-1 Receptor (Homo sapiens)"
label_class = "N"

[[record]]
compound = "C[C@]1(c2ccc(Cl)cc2F)Oc2cccc(C3CCN(Cc4nc5cc(-c6nnc(C(F)(F)F)[nH]6)ncc5n4C[C@@H]4CCO4)CC3)c2O1 [Compound 366a]"
experimental_target = "GLP-1 Receptor (Homo sapiens)"
label_class = "Y"


Textbook exercise: given the entry N#Cc1nnc(-c2cc3nc(CN4CCC(c5cccc(OCc6ccc(Cl)cc6F)n5)CC4)n(C[C@@H]4CCO4)c3cn2)[nH]1 [Compound 484a] , state whether its pEC50 is greater than or equal to 10.
Y

Request: Cc1nc(-c2noc(=O)[nH]2)cc2nc(CN3CCC(c4cccc5c4O[C@@](C)(c4ccc(Cl)cc4F)O5)CC3)n(C[C@@H]3CCO3)c12 [Compound 434a]
N

Request: C[C@]1(c2ccc(Cl)cc2F)Oc2cccc(C3CCN(Cc4nc5cc(-c6nnc(C(F)F)[nH]6)ncc5n4C[C@@H]4CCO4)CC3)c2O1 [Compound 360a]
Y

Request: CO[C@@H](C)Cn1c(CN2CCC(c3cccc4c3O[C@@](C)(c3ccc(C#N)cc3F)O4)CC2)nc2cc(-c3noc(=O)[nH]3)ncc21 [Compound 443a]
N

Request: CC1(c2ccc(Cl)cc2F)Oc2cccc(C3CCN(Cc4nc5cc(-c6n[nH]c(=O)o6)ccc5n4C[C@@H]4CCO4)CC3)c2O1 (stereo partly shown) [Compound 219a]
N

Request: C[C@]1(c2ccc(Cl)cc2F)Oc2cccc(C3CCN(Cc4nc5cc(-c6nnc(C(F)(F)F)[nH]6)nnc5n4C[C@@H]4CCO4)CC3)c2O1 [Compound 359a]
Y
